- TESTED_TARGET: T1, PUF4 RNA-binding domain (Saccharomyces cerevisiae, UniProt P25339 537-888)
- T1 sequence: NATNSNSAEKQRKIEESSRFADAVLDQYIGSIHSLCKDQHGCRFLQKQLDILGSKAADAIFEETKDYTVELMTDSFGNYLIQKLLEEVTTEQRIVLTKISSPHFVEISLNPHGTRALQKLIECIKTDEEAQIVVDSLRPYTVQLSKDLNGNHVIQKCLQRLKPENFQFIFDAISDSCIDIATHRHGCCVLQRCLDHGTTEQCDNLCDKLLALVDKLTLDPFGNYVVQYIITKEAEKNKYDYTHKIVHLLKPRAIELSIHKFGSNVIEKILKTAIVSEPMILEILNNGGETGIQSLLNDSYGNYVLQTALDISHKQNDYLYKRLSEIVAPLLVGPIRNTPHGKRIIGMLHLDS
- PROTOCOL: Mg; RNA-MaP; 20 mM Na-HEPES pH 7.4, 30 mM KOAc, 0.75 mM MgCl2, 0.1% Tween-20, 5% glycerol, 0.1 mg/mL BSA, 2 mM DTT; 25 C; 0.0125-409.6 nM protein
- CONDITION_LABEL: tags: N-His6-TEV cleaved; C-SNAP kept, Cy3B-labelled; label: tethered on chip by stalled RNA polymerase
pKd: −log10 of the molar value.
Note to self: values exactly at 7 are fulfilled. So pKd at or above 7 is fulfilled, below is not fulfilled.

[[record]]
binder = "UCUCUUUGUAUGAUUUUCUCUU (ssRNA) [Ib_S1_P5E.1_K5.1_C5.1_H5.1_A5.1_[T6G]_F5.1_[A10T]_T5.1]"
label_value = "fulfilled"


Query: Answer whether pKd of ACAAACGAUAUAUAUAGGACAAAC (ssRNA) [Id_ii_S3_P3E.3_K3.2_C3.2_[C-2G]_[T-1A]_H3.2_A3.1_F3.1_T3.2_[T9G]_[A10G]] is greater than or equal to 7.
Result: not fulfilled

Query: Answer whether pKd of ACAAACGUUAUAUAUAAUACAAAC (ssRNA) [Id_ii_S3_P3E.3_K3.2_C3.2_[C-2G]_H3.2_A3.1_F3.1_T3.2_[T9A]_[A10T]] is greater than or equal to 7.
Result: not fulfilled

Query: Answer whether pKd of UCUCUUUAACACUAUAUAUCUCUU (ssRNA) [Id_ii_S1_P3E.4_K3.3_C3.2_[C-2T]_[T-1A]_H3.3_A3.1_F3.1_T3.2] is greater than or equal to 7.
Result: not fulfilled

Query: Answer whether pKd of Ic_S4_P4E.1_K4.1_C4.1_H4.1_A4.1_[T5C]_[A6T]_[T7G]_F4.1_[A9T]_T4.1 (ssRNA) RNA: UUUGACAACUGAUCGUUCUUUCUUGUACUGUUUUCUUUCUCGAUCAGUUGUCUUU is greater than or equal to 7.
Result: fulfilled

Query: Answer whether pKd of Id_ii_S2_P5E.4_K5.3_C5.2_[C-2A]_[T-1C]_H5.3_A5.1_F5.1_T5.2_[T11A]_[A12C] (ssRNA) RNA: UUUGAUUAAUAUGAUAUCGUUCUUUCUACACACUUAUUAACUUCUUUCUCGAUAUCAUAUUAAUCUUU is greater than or equal to 7.
Result: not fulfilled

Query: Answer whether pKd of UCUCUUCAUGUAUUAUUAUCUCUCUU (ssRNA) [Id_ii_S1_P5E.2_K5.1_C5.2_[T-1A]_H5.1_A5.1_F5.1_T5.2_[A12C]] is greater than or equal to 7.
Result: fulfilled

Query: Answer whether pKd of UCUCUUUGUAUCCCCUCUCUU (ssRNA) [Ic_S1_P4E.1_K4.1_C4.1_H4.1_A4.1_[A6C]_[T7C]_F4.1_[T8C]_[A9C]_T4.1] is greater than or equal to 7.
Result: not fulfilled
